- assay-target: UvrY-His6 (Escherichia coli O157:H7 (EHEC; EDL933?)) (UniProt P66798)
- Sequence: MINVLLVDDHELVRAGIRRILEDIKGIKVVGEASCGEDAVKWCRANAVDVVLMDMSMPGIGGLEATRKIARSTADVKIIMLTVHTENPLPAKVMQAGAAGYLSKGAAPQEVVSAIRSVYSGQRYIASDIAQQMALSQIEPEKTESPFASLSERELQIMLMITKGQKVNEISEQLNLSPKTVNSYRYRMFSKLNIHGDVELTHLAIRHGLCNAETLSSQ
- assay-info: EMSA
readout-type: binding

- macromolecule-sequence: "GTTATCGCAGGGAGCCACACAGCGTGTGTTGGACGCGACTCAGCTTTACCTTGGTGAGATTGGTTATTCACCACTGTTAACGGCCGAAGAAGAAGTTTATTTTGCGCGTCGCGCACTGCGTGGAGATGTCGCCTCTCGCCGCCGGATGATCGAGAGTAACTTGCGTCTGGTGGTAAAA (double strand) [rpoS coding region]"
  measured-value: "no binding"
- macromolecule-sequence: "CATTAGCCATTGGAAACTCACGTAATCATTAATTATGAATATTCCATTAAATAGTACTGTACAACAGCTTCCTTTCTACTCTATTCTTAGACGATGTAAGTTCACCATATTTTTTCTCATTGTTCAACCACCAGGATGAATAAAATTTAAAAATGTTATCCTCATATAAAATAAAACTTCTCAATGGTGCGATGCG (double strand) [PLEE4]"
  measured-value: "no binding"
- macromolecule-sequence: "GGGTGCTACTTTACGCCTTTGCTTTAAACAAACAATCAACCGCCATCAGTATTTGCACATTTTCAGAGTTTTATATAAAAGCAATTAACTGATTTATATAGCTTATTTGACATGCATCGCAGAATTTTCTCTGCTATTTCGCATAAAGACTATCGGCAATGTCTCACAAAGCGTATGGCTTTTACTTACAACGCTCACGCCGAAAAATCCGCCTTTTATTATGGTTCAGGTATAATCGCCGCAAAGCTTTGACTGACGGAGACGACCGCTT (double strand) [PcsrC]"
  measured-value: "binds"
- macromolecule-sequence: "AGATTCATCTGCAGGCTCTGAAGTAAGTATACGTGTGAATATTATTGCTTGAAAAAGCGTATTGGATAATATATACAGTATATGTACTTTATGTACATTGCAACTATTTAAATAATATAATAGTTGCCTATGGGATAATTTGGTTATTTATAACCAGGTAAATGTCTAAATTAGACAAAAGGAGAAAGATCAATGGAAGCAGCAAATTTAAGTCCTTCTGGTGCAGTAATG (double strand) [PLEE2/3]"
  measured-value: "no binding"
